# Target system: Human complement C1s enzyme (Homo sapiens, UniProt P09871)
# Construct: purified from human serum, Complement Technology, Inc; purchased Complement Technology, Inc; host or cells: human serum
# Assay text: Human C1s Enzyme Assay
# Format: biochemical
# Assay setup: human C1s 1.16 nM, 5 min preincubation, substrate Z-L-Lys-SBzl 100 μM, A405; read-out: C1s Protease Activity
Readout: IC50

The measured IC50 associated with `N=C(N)c1ccc(CNC(=O)[C@@H]2CC3(CN2C(=O)CNC(=O)CCCOc2ccccc2)OCCO3)s1` reads < 0.1 µM

The measured IC50 associated with `N=C(N)c1csc(CNC(=O)[C@@H]2C[C@H](OC(F)(F)F)CN2C(=O)CNC(=O)c2ccc(Oc3ccccc3)cc2)c1` reads < 0.1 µM

The measured IC50 associated with `N=C(N)c1csc(CNC(=O)[C@@H]2C[C@]3(CO)C[C@@H]3N2C(=O)CNC(=O)CCCOc2ccccc2)c1` reads 0.1 to 1 µM

The measured IC50 associated with `C[C@@]12C[C@@H]1N(C(=O)CNC(=O)c1ccc(Oc3ccccc3)cc1)[C@H](C(=O)NCc1ccc3onc(N)c3c1)C2` reads > 1 µM

====

# Target system: Human complement C1s enzyme (Homo sapiens, UniProt P09871)
# Construct: purified from human serum, Complement Technology, Inc; purchased Complement Technology, Inc; host or cells: human serum
# Sequence (P09871 438-688 limits assumed): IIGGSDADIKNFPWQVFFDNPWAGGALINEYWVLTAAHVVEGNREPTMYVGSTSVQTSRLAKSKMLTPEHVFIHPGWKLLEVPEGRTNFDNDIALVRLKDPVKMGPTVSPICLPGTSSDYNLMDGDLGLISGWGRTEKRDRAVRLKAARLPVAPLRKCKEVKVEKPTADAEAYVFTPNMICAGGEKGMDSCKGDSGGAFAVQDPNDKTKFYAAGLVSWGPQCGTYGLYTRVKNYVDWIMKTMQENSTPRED
# Sequence (P09871 16-437 partner limits assumed): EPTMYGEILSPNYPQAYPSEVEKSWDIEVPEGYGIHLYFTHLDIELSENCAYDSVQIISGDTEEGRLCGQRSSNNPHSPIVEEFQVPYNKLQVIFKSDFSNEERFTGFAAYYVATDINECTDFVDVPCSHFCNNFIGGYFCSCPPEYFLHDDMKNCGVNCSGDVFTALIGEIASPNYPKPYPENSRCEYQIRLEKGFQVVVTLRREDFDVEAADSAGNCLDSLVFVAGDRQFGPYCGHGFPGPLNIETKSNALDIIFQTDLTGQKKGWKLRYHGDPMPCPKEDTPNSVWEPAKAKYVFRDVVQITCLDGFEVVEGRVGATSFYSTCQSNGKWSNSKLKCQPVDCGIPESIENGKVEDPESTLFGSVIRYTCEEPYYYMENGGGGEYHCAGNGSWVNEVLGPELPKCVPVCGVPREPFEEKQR
# Assay text: Human C1s Enzyme Assay
# Format: biochemical
# Assay setup: human C1s 1.16 nM, 5 min preincubation, substrate Z-L-Lys-SBzl 100 μM, A405; read-out: C1s Protease Activity
I'd appreciate it if you could supply IC50 values for the items below.

The measured IC50 associated with `C[C@@H](NC(=O)[C@@H]1C[C@]2(C)C[C@@H]2N1C(=O)CNC(=O)[C@H](CCOc1ccccc1)NC(=O)CCC(=O)O)c1cc(C(=N)N)cs1` reads < 100 nM

The measured IC50 associated with `C[C@@]12C[C@@H]1N(C(=O)CNC(=O)c1ccc(Oc3ccccc3)cc1)[C@H](C(=O)NCc1cc3ccnc(N)c3s1)C2` reads > 1000 nM

The measured IC50 associated with `Cc1sc(CNC(=O)[C@@H]2C[C@]3(C)C[C@@H]3N2C(=O)CNC(=O)CCCOc2ccccc2)cc1C(=N)N` reads > 1000 nM

The measured IC50 associated with `COC[C@@]1(F)C[C@@H](C(=O)N[C@H](C)c2cc(C(=N)N)cs2)N(C(=O)CNC(=O)CCCOc2ccccc2)C1` reads < 100 nM

The measured IC50 associated with `C[C@@]12C[C@@H]1N(C(=O)CNC(=O)c1ccc(Oc3ccccc3)cc1)[C@H](C(=O)NCc1cnc(N)s1)C2` reads 100 to 1000 nM

The measured IC50 associated with C[C@@]12C[C@@H]1N(C(=O)CNC(=O)c1ccc(Oc3ccccc3)cc1)[C@H](C(=O)NCc1cc(S(C)(=N)=O)cs1)C2 (stereo partly shown) reads > 1000 nM

The measured IC50 associated with `C[C@@]12C[C@@H]1N(C(=O)CNC(=O)c1ccc(Oc3ccccc3)cc1)[C@H](C(=O)NCc1cc3c(s1)CCN=C3N)C2` reads > 1000 nM

The measured IC50 associated with `C[C@@H](C(=O)NCc1cc(C(=N)N)cs1)N(C)C(=O)CNC(=O)c1ccc(Oc2ccccc2)cc1` reads < 100 nM

The measured IC50 associated with `C[C@@]12C[C@@H]1N(C(=O)CNC(=O)c1ccc(Oc3ccccc3)cc1)[C@H](C(=O)N(O)Cc1cc(C(=N)N)cs1)C2` reads > 1000 nM

The measured IC50 associated with `C[C@@]12C[C@@H]1N(C(=O)CNC(=O)CCCOc1ccccc1)[C@H](C(=O)NCc1cc(C(=N)N)c(F)s1)C2` reads < 100 nM

The measured IC50 associated with `N=C(N)c1csc(CNC(=O)[C@@H]2C[C@H](C(F)(F)F)CN2C(=O)CNC(=O)CCCOc2ccccc2)c1` reads < 100 nM

The measured IC50 associated with `N=C(N)c1csc(CNC(=O)[C@@H]2[C@H](O)[C@@H](F)CN2C(=O)CNC(=O)CCCOc2ccccc2)c1` reads < 100 nM

The measured IC50 associated with `N=C(N)c1csc(CNC(=O)[C@@H]2C[C@@H](Cc3ccc(C(F)(F)F)cc3)CN2C(=O)CNC(=O)c2ccc(Oc3ccccc3)cc2)c1` reads < 100 nM

Entry source: patent US20250171423A1
